Sourced from PubChem BioAssay (NCI)

Consider the following compounds and their measured TGI readings.
System: SK-MEL-28 melanoma
EXPERIMENTAL_DETAILS: NCI tumour cell line growth inhibition, 48 h
# value in µM; strip the unit string

Below, 3 compounds whose answers are already recorded.
COMPOUND: C[C@]12CC[C@H]3[C@@H](CCC4=CC(=O)CC[C@@H]43)[C@@H]1CC[C@@H]2OC(=O)CCc1ccccc1
VALUE_OBSERVED: 37

COMPOUND: CCC1CN2CCc3cc(OC)c(OC)cc3C2CC1CC1c2cc(OC)c(OC)cc2CCN1C(=O)C1CCCN1C(=O)OCc1ccccc1 (stereo not drawn)
VALUE_OBSERVED: 30.7

COMPOUND: O=C(N/N=C/c1ccc2c(c1)CCC2)c1ccccc1O
VALUE_OBSERVED: 68.2

Please examine the following record next.
I am curious: what TGI value has been reported for Cc1cc2c3ccc(C)[n+](C)c3ccc2n1C ? 19.5

* * *

Test system: SK-MEL-28 melanoma
EXPERIMENTAL_DETAILS: NCI tumour cell line growth inhibition, 48 h
Consider the following compounds and their measured TGI readings.

SMILES_STRUCTURE: N=C(N)c1ccc(N2CCCN(c3ccc(C(=N)N)cc3)CC2)cc1
TGI: > 100 µM
--
SMILES_STRUCTURE: Cc1ccc(Oc2ccc(C)cc2[N+](=O)[O-])cc1
TGI: > 100 µM
--
SMILES_STRUCTURE: Cc1cc2c(C)n(Cc3ccc(Cl)cc3Cl)nc2c(C#N)c1C
TGI: > 100 µM

I am curious: what TGI value has been reported for CCCCCC/C=C\CCCCCCCCCc1cccc(O)c1C(=O)O ? > 100 µM
